Tested on: diamondback moth (Plutella xylostella)
Experiment: Test A: control of diamondback moth on radish plant, foliar spray
Assay type: in vivo
Conditions: sprayed at 50 ppm, held 6 days
Property Measured: levels of control efficacy (20% or less feeding damage or 80% or more mortality)

CCNC(=O)CNC(=O)c1ccc(C2=NOC(c3cc(Cl)cc(C(F)(F)F)c3)(C(F)(F)F)C2)c2ccccc12 (centres unmarked) [Compound 119] :: very good to excellent
CNC(=O)CNC(=O)c1ccc(C2=NOC(c3cc(Cl)cc(C(F)(F)F)c3)(C(F)(F)F)C2)c2ccccc12 (centres unmarked) [Compound 116] :: very good to excellent
CSCCNC(=O)c1ccc(C2=NOC(c3cc(Br)cc(Br)c3)(C(F)(F)F)C2)c2ccccc12 (centres unmarked) [Compound 21] :: very good to excellent
CS(=O)(=O)CCNC(=O)c1ccc(C2=NOC(c3cc(Cl)cc(Cl)c3)(C(F)(F)F)C2)c2ccccc12 (centres unmarked) [Compound 20] :: very good to excellent
CSCC(C)NC(=O)c1ccc(C2=NOC(c3cc(Cl)cc(Cl)c3)(C(F)(F)F)C2)c2ccccc12 (centres unmarked) [Compound 30] :: very good to excellent
CC(C)(C)CNC(=O)CNC(=O)c1ccc(C2=NOC(c3cc(C(F)(F)F)cc(C(F)(F)F)c3)(C(F)(F)F)C2)c2ccccc12 (centres unmarked) [Compound 103] :: very good to excellent
CC(NC(=O)c1ccc(C2=NOC(c3cc(Cl)cc(Cl)c3)(C(F)(F)F)C2)c2ccccc12)C(=O)NCC(F)(F)F (mixture of isomers) [Compound 16] :: very good to excellent
CSCCNC(=O)c1ccc(C2=NOC(c3cc(Cl)c(Cl)c(Cl)c3)(C(F)(F)F)C2)c2ccccc12 (centres unmarked) [Compound 15] :: very good to excellent
CC(C)CNC(=O)CNC(=O)c1ccc(C2=NOC(c3cc(Cl)cc(C(F)(F)F)c3)(C(F)(F)F)C2)c2ccccc12 (centres unmarked) [Compound 118] :: very good to excellent
CS(=O)(=O)CCNC(=O)c1ccc(C2=NOC(c3cc(Cl)cc(C(F)(F)F)c3)(C(F)(F)F)C2)c2ccccc12 (centres unmarked) [Compound 66] :: very good to excellent

Exercise: Need levels of control efficacy (20% or less feeding damage or 80% or more mortality), item CC(CO)NC(=O)c1ccc(C2=NOC(c3cccc(C(F)(F)F)c3)(C(F)(F)F)C2)c2ccccc12 (mixture of isomers) [Compound 41]
Key: very good to excellent

Exercise: Repeat with CC(NC(=O)c1ccc(C2=NOC(c3cc(Cl)cc(Cl)c3)(C(F)(F)F)C2)c2ccccc12)C(=O)NC(C)C(F)(F)F (mixture of isomers) [Compound 123]
Key: very good to excellent

Exercise: Queued: CC(C)SCCCNC(=O)c1ccc(C2=NOC(c3cccc(C(F)(F)F)c3)(C(F)(F)F)C2)c2ccccc12 (racemic) [Compound 56]
Key: very good to excellent

Exercise: Ok, now C[S+]([O-])CCNC(=O)c1ccc(C2=NOC(c3cc(Cl)cc(Cl)c3)(C(F)(F)F)C2)c2ccccc12 (centres unmarked) [Compound 18]
Key: very good to excellent

Exercise: Same read-out for CC(C)(C)CNC(=O)CNC(=O)c1ccc(C2=NOC(c3cc(Cl)cc(C(F)(F)F)c3)(C(F)(F)F)C2)c2ccccc12 (centres unmarked) [Compound 120] ?
Key: very good to excellent

----------
Tested on: fall armyworm (Spodoptera frugiperda)
Experiment: Test B: control of fall armyworm on corn (maize) plant, foliar spray
Assay type: in vivo
Details: sprayed at 50 ppm
Property Measured: levels of control efficacy (20% or less feeding damage or 80% or more mortality)

CC(O)CNC(=O)c1ccc(C2=NOC(c3cc(C(F)(F)F)cc(C(F)(F)F)c3)(C(F)(F)F)C2)c2ccccc12 (stereo not drawn) :: very good to excellent
O=C(CNC(=O)c1ccc(C2=NOC(c3cc(Cl)cc(Cl)c3)(C(F)(F)F)C2)c2ccccc12)NCC(F)(F)C(F)(F)C(F)(F)F (stereo not drawn) :: very good to excellent
CS(=O)(=O)CCNC(=O)c1ccc(C2=NOC(c3cc(F)cc(C(F)(F)F)c3)(C(F)(F)F)C2)c2ccccc12 (racemic) :: very good to excellent

----------
Tested on: western flower thrips (Frankliniella occidentalis)
Test: Test E: control of western flower thrips on Soleil bean plant, contact and/or systemic
Format: in vivo
Conditions: sprayed at 250 ppm; held 6 days
Property Measured: levels of control efficacy (20% or less feeding damage or 80% or more mortality)

CSCC(C)NC(=O)c1ccc(C2=NOC(c3cc(Cl)cc(Cl)c3)(C(F)(F)F)C2)c2ccccc12 (mixture of isomers) [Compound 29] :: very good to excellent
CCNC(=O)CNC(=O)c1ccc(C2=NOC(c3cc(Cl)cc(C(F)(F)F)c3)(C(F)(F)F)C2)c2ccccc12 (stereo not drawn) :: very good to excellent
O=C(CNC(=O)c1ccc(C2=NOC(c3cc(C(F)(F)F)cc(C(F)(F)F)c3)(C(F)(F)F)C2)c2ccccc12)NCC(F)(F)F (racemic) :: very good to excellent

----------
System: fall armyworm (Spodoptera frugiperda)
Assay: Test B: control of fall armyworm on corn (maize) plant, foliar spray
Assay type: in vivo
Settings: sprayed at 50 ppm
Source text: Test compounds were formulated using a solution containing 10% acetone, 90% water and 300 ppm X-77™ Spreader Lo-Foam Formula non-ionic surfactant containing alkylarylpolyoxyethylene, free fatty acids, glycols and isopropanol (Loveland Industries, Inc. Greeley, Colo., USA). […] Plant feeding damage was then visually assessed based on foliage consumed, and a pest mortality rating was also counted and calculated for each test unit. […]
Property Measured: levels of control efficacy (20% or less feeding damage or 80% or more mortality)

CC[S+]([O-])CCNC(=O)c1ccc(C2=NOC(c3cc(C(F)(F)F)cc(C(F)(F)F)c3)(C(F)(F)F)C2)c2ccccc12 (stereo not drawn) :: very good to excellent
CC(C)NC(=O)C(C)NC(=O)c1ccc(C2=NOC(c3cc(Cl)cc(C(F)(F)F)c3)(C(F)(F)F)C2)c2ccccc12 (mixture of isomers) :: very good to excellent
CC(C)CNC(=O)C(C)NC(=O)c1ccc(C2=NOC(c3cc(Cl)cc(C(F)(F)F)c3)(C(F)(F)F)C2)c2ccccc12 (mixture of isomers) :: very good to excellent
CSCC(C)NC(=O)c1ccc(C2=NOC(c3cc(C(F)(F)F)cc(C(F)(F)F)c3)(C(F)(F)F)C2)c2ccccc12 (mixture of isomers) [Compound 59] :: very good to excellent
CNC(=O)C(C)NC(=O)c1ccc(C2=NOC(c3cc(Br)cc(C(F)(F)F)c3)(C(F)(F)F)C2)c2ccccc12 (mixture of isomers) :: very good to excellent

Exercise: What does the record list as levels of control efficacy (20% or less feeding damage or 80% or more mortality) for CC(NC(=O)c1ccc(C2=NOC(c3cc(C(F)(F)F)cc(C(F)(F)F)c3)(C(F)(F)F)C2)c2ccccc12)C(=O)NCC(F)(F)F (stereo not drawn) ?
Key: very good to excellent

----------
Tested on: fall armyworm (Spodoptera frugiperda)
Assay: Test B: control of fall armyworm on corn (maize) plant, foliar spray
Type: in vivo
Conditions: sprayed at 50 ppm
Property Measured: levels of control efficacy (20% or less feeding damage or 80% or more mortality)

Answered cases to consult:
CC(C)NC(=O)CNC(=O)c1ccc(C2=NOC(c3cc(Cl)cc(C(F)(F)F)c3)(C(F)(F)F)C2)c2ccccc12 (stereo not drawn) [Compound 63] :: very good to excellent
CCCNC(=O)CNC(=O)c1ccc(C2=NOC(c3cc(C(F)(F)F)cc(C(F)(F)F)c3)(C(F)(F)F)C2)c2ccccc12 (stereo not drawn) [Compound 101] :: very good to excellent
CCC(CO)NC(=O)c1ccc(C2=NOC(c3cccc(C(F)(F)F)c3)(C(F)(F)F)C2)c2ccccc12 (mixture of isomers) [Compound 46] :: very good to excellent
CSCCNC(=O)c1ccc(C2=NOC(c3cc(Br)cc(C(F)(F)F)c3)(C(F)(F)F)C2)c2ccccc12 (racemic) [Compound 50] :: very good to excellent
CCNC(=O)CNC(=O)c1ccc(C2=NOC(c3cc(C(F)(F)F)cc(C(F)(F)F)c3)(C(F)(F)F)C2)c2ccccc12 (stereo not drawn) [Compound 100] :: very good to excellent

Let's switch to this compound now.
Exercise: Item CS(=O)(=O)CCNC(=O)c1ccc(C2=NOC(c3cc(Br)cc(C(F)(F)F)c3)(C(F)(F)F)C2)c2ccccc12 (racemic) [Compound 54] has what recorded levels of control efficacy (20% or less feeding damage or 80% or more mortality)?
Key: very good to excellent
